Listing of recorded IC50 by entry.
System: SH-SY5Y cells
PROCEDURE SUMMARY: Cytotoxicity assay (MTS) on SH-SY5Y
Assay type: cell-based
CONDITION: Homo sapiens, 4 h exposure, read-out: IC50 ± SE SH-SY5Y 4 h

(Q) What value of IC50 has been reported for the following compound? ON=C1C[N+]2(CCCCCCCCCC[N+]34CCC(CC3)C(=NO)C4)CCC1CC2
(A) ≥ 800 µM

(Q) What value of IC50 has been reported for the following compound? CCCCCCCCCCCC[N+]12CCC(CC1)C(O)C2 (stereo not shown)
(A) 74 µM

(Q) What value of IC50 has been reported for the following compound? OC1C[N+]2(CCCCCCCC[N+]34CCC(CC3)C(O)C4)CCC1CC2 (stereo not shown)
(A) ≥ 800 µM

Continue with the compound presented below.
(Q) What value of IC50 has been reported for the following compound? CCCCCCCCCC[N+]12CCC(CC1)C(=NO)C2.[Br-]
(A) ≥ 800 µM
